# TARGET UNDER TEST: human recombinant mGluR5 (Homo sapiens, UniProt P41594)
# Sequence (P41594 21-1212): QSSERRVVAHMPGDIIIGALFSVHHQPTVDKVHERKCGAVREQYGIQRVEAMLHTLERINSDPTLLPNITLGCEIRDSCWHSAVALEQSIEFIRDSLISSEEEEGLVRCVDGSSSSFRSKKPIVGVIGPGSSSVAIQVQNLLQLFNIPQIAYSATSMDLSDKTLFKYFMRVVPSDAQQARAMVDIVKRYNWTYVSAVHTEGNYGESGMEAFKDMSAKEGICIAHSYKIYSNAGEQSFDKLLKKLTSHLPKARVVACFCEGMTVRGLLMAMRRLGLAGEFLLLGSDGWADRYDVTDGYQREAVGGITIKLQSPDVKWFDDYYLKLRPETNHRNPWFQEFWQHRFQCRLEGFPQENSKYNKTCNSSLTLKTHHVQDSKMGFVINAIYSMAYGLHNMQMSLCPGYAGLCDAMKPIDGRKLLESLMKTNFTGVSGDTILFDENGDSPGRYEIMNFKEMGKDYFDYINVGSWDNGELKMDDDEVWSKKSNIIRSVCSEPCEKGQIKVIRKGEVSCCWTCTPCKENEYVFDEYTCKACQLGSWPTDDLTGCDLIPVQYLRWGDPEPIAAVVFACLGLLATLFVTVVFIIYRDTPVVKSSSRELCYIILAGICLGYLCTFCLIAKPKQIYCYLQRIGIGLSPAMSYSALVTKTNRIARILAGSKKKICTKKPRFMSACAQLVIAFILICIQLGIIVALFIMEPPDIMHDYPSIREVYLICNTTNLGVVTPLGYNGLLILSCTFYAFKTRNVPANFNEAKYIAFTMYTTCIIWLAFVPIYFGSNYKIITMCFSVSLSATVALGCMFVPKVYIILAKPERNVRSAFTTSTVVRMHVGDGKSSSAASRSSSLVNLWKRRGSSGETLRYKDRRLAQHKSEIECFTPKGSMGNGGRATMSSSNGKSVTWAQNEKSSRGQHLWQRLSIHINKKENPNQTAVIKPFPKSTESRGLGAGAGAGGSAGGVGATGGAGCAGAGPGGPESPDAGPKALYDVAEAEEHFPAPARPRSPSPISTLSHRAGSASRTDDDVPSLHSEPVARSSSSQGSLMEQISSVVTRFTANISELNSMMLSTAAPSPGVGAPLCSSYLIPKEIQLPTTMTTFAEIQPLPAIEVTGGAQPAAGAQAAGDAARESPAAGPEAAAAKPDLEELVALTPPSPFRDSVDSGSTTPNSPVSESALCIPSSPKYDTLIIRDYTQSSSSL
# EXPERIMENT: positive modulation of mGluR5, calcium based FLIPR assay
# MEASUREMENT SETUP: HEK 293 cell line expressing human recombinant mGluR5; EC50 of the modulation from peak Ca fluorescence signal after glutamate at approx. 5% basal stimulation
RECORDED ENDPOINT: EC50 (nM)

O=C(Cn1nc(-c2ccccc2)cc1-c1ccccc1)N1CCN(c2nccc3sccc23)CC1 :: 573
CCc1cc(-c2ccc(F)c(C)c2)nn1CC(=O)N1CCN(c2nnc(C)o2)CC1 :: 290
Cc1ccc(-c2cc(-c3ccccc3)n(CC(=O)N3CCc4nc(N)sc4CC3)n2)nc1C :: 71

(I) CCc1cc(-c2ccc(F)c(C)c2)nn1CC(=O)N1CCc2nc(C)sc2CC1C (centres unmarked)
(II) CCc1cc(-c2ccc(F)c(C)c2)nn1CC(=O)N1CCc2ccc(N)cc2CC1
Which value of EC50 is smaller, the one for I or the one for II ? Choose, then provide that item's label. I

----------
# TARGET UNDER TEST: human recombinant mGluR5 (Homo sapiens)
# EXPERIMENT: positive modulation of mGluR5, calcium based FLIPR assay
# MEASUREMENT SETUP: HEK 293 cell line expressing human recombinant mGluR5; EC50 of the modulation from peak Ca fluorescence signal after glutamate at approx. 5% basal stimulation
RECORDED ENDPOINT: EC50 (nM)

Consider the following illustrative entries.
Cc1cccc(-c2cc(-c3ccccc3)n(CC(=O)N3CCC(c4nnc(C)o4)CC3)n2)c1 [Example 7.02.197] :: 90
CCc1cc(-c2cccc(C)c2)nn1CC(=O)N1CCc2nc(N)sc2CC1 [Example 7.02.079] :: 182
O=C(Cn1nc(-c2ccccc2)cc1-c1ccccc1)N1CCc2nc(-c3ccccc3)ncc2C1 [Example 7.02.005] :: 1260

(1) O=C(Cn1nc(-c2ccccc2)cc1-c1ccccc1)N1CCN(c2cccc(F)c2)C(=O)C1 [Example 7.01.034]
(2) COc1cccc(C2=CCN(C(=O)Cn3nc(-c4ccc(F)c(C)c4)cc3-c3ccccc3)CC2)c1 [Example 7.02.136]
(3) Cc1cccc(-c2cc(-c3ccccc3)n(CC(=O)N3CCc4nc(N)sc4CC3)n2)c1 [Example 7.02.199]
Ascending by EC50, please: list the compounds accordingly. Respond with the label ranking, as requested. 3, 2, 1

(1) CCc1cc(-c2ccc(F)c(C)c2)nn1CC(=O)N1CCN(c2nnc(C(F)(F)F)s2)CC1 [Example 7.02.162]
(2) COc1cccc(C2CCN(C(=O)Cn3nc(-c4ccc(F)c(C)c4)cc3-c3ccccc3)CC2)c1 [Example 7.02.146]
Larger number for EC50: 1 , or 2 ? Choose, then provide that item's label. 2
(2: 295 nM, 1: 120 nM)
